- CONDITION_PARAMETERS: 333.15 K; 101.33 kPa; Liquid; Vibrating tube method
Numbers after ± are expanded uncertainties.
OUTCOME_MEASURE: mass density
Don't forget the unit after the number, please.

Worked cases, mass density given:
>>> result("CCCC[P+](CCCC)(CCCC)CCCC.NCCS(=O)(=O)[O-] [tetrabutylphosphonium 2-aminoethanesulfonate]")
"1005.3 ± 5.5 kg/m3"
>>> result("CCCC[N+](C)(CCCC)CCCC.C[C@@H](O)[C@H](N)C(=O)[O-] [N,N-dibutyl-N-methyl-1-butanaminium L-threoninate]")
"977.7 ± 5.2 kg/m3"
>>> result("CCCC[N+](C)(CCCC)CCCC.N[C@@H](CO)C(=O)[O-] [N,N-dibutyl-N-methylbutanaminium L-serinate]")
"993.9 ± 5.3 kg/m3"
>>> result("CCCC[P+](CCCC)(CCCC)CCCC.N[C@@H](CO)C(=O)[O-] [tetrabutylphosphonium L-serinate]")
"970.8 ± 5.1 kg/m3"
>>> result("CCCC[P+](CCCC)(CCCC)CCCC.O=C([O-])[C@@H]1CCCN1 [tetrabutylphosphonium L-prolinate]")
"970.8 ± 5.1 kg/m3"

The following compounds each have a reported value; give each one's mass density.
1. CCCC[P+](CCCC)(CCCC)CCCC.C[C@@H](O)[C@H](N)C(=O)[O-] [tetrabutylphosphonium L-threoninate]
2. CC(C)[C@H](N)C(=O)[O-].CCCC[P+](CCCC)(CCCC)CCCC [tetrabutylphosphonium L-valinate]

Solution:
958.5 ± 5 kg/m3
919.9 ± 4.6 kg/m3

###

I'd appreciate it if you could supply mass density values for the items below.
- CONDITION_PARAMETERS: 353.15 K; 101.33 kPa; Liquid; Vibrating tube method
Give bare numbers, in kg/m3.

>>> numeric_value("CCCC[N+](C)(CCCC)CCCC.C[C@@H](O)[C@H](N)C(=O)[O-] [N,N-dibutyl-N-methyl-1-butanaminium L-threoninate]")
965.7
>>> numeric_value("CCCC[N+](C)(CCCC)CCCC.NCCS(=O)(=O)[O-] [N,N-dibutyl-N-methyl-1-butanaminium 2-aminoethanesulfonate]")
1018
>>> numeric_value("CCCC[P+](CCCC)(CCCC)CCCC.C[C@@H](O)[C@H](N)C(=O)[O-] [tetrabutylphosphonium L-threoninate]")
946.6
>>> numeric_value("CC(C)[C@H](N)C(=O)[O-].CCCC[P+](CCCC)(CCCC)CCCC [tetrabutylphosphonium L-valinate]")
908
>>> numeric_value("CCCC[P+](CCCC)(CCCC)CCCC.O=C([O-])[C@@H]1CCCN1 [tetrabutylphosphonium L-prolinate]")
958.6

The following compounds each have a reported value; give each one's mass density.
1. CCCC[P+](CCCC)(CCCC)CCCC.N[C@@H](CO)C(=O)[O-] [tetrabutylphosphonium L-serinate]
2. CCCC[P+](CCCC)(CCCC)CCCC.NCCS(=O)(=O)[O-] [tetrabutylphosphonium 2-aminoethanesulfonate]
3. CCCC[N+](C)(CCCC)CCCC.NCCCC[C@H](N)C(=O)[O-] [N,N-dibutyl-N-methyl-1-butanaminium L-lysinate]

Solution:
[958.9, 993.3, 946.8]

###

- CONDITION_PARAMETERS: 343.15 K; 101.33 kPa; Liquid
± gives the expanded uncertainty stated by the source.
I'd appreciate it if you could supply viscosity values for the items below.
Don't forget the unit after the number, please.

Worked cases, viscosity given:
>>> result("CCCC[N+](C)(CCCC)CCCC.N[C@@H](CO)C(=O)[O-] [N,N-dibutyl-N-methylbutanaminium L-serinate]")
"207.9 ± 21 mPa·s"
>>> result("CCCC[P+](CCCC)(CCCC)CCCC.N[C@@H](CO)C(=O)[O-] [tetrabutylphosphonium L-serinate]")
"77.6 ± 3.1 mPa·s"

The following compounds each have a reported value; give each one's viscosity.
1. CCCC[P+](CCCC)(CCCC)CCCC.NCCCC[C@H](N)C(=O)[O-] [tetrabutylphosphonium L-lysinate]
2. CCCC[N+](C)(CCCC)CCCC.C[C@@H](O)[C@H](N)C(=O)[O-] [N,N-dibutyl-N-methyl-1-butanaminium L-threoninate]
3. CC(C)[C@H](N)C(=O)[O-].CCCC[P+](CCCC)(CCCC)CCCC [tetrabutylphosphonium L-valinate]
4. CCCC[P+](CCCC)(CCCC)CCCC.N[C@@H](CS)C(=O)[O-] [tetrabutylphosphonium L-cysteinate]

Solution:
1: 59.8 ± 1.7 mPa·s; 2: 200.6 ± 20 mPa·s; 3: 44.8 ± 1.3 mPa·s; 4: 118.3 ± 7.6 mPa·s

###

- CONDITION_PARAMETERS: 343.15 K; 101.33 kPa; Liquid; Hot wire method
OUTCOME_MEASURE: thermal conductivity (W/m/K)
Give bare numbers, in W/m/K.

>>> numeric_value("CCCC[N+](C)(CCCC)CCCC.N[C@@H](CO)C(=O)[O-] [N,N-dibutyl-N-methylbutanaminium L-serinate]")
0.164
>>> numeric_value("CC(C)[C@H](N)C(=O)[O-].CCCC[P+](CCCC)(CCCC)CCCC [tetrabutylphosphonium L-valinate]")
0.154

The following molecules each have a reported value; give each one's thermal conductivity.
1. CCCC[P+](CCCC)(CCCC)CCCC.C[C@@H](O)[C@H](N)C(=O)[O-] [tetrabutylphosphonium L-threoninate]
2. CCCC[N+](C)(CCCC)CCCC.C[C@@H](O)[C@H](N)C(=O)[O-] [N,N-dibutyl-N-methyl-1-butanaminium L-threoninate]
3. CCCC[P+](CCCC)(CCCC)CCCC.NCCCC[C@H](N)C(=O)[O-] [tetrabutylphosphonium L-lysinate]
4. CCCC[P+](CCCC)(CCCC)CCCC.O=C([O-])[C@@H]1CCCN1 [tetrabutylphosphonium L-prolinate]
5. CCCC[P+](CCCC)(CCCC)CCCC.N[C@@H](CS)C(=O)[O-] [tetrabutylphosphonium L-cysteinate]

Solution:
1: 0.152; 2: 0.155; 3: 0.159; 4: 0.149; 5: 0.147

Exercise: For the molecule shown here, CCCC[N+](C)(CCCC)CCCC.NCCCC[C@H](N)C(=O)[O-] [N,N-dibutyl-N-methyl-1-butanaminium L-lysinate] , give the reported thermal conductivity.
Solution: 0.166

###

- CONDITION_PARAMETERS: 313.15 K; 101.33 kPa; Liquid; Vibrating tube method
Label scheme for mass density: lower than 1000 kg/m3 is criterion not met, 1000 kg/m3 and above is criterion met.

Exercise: I'd appreciate it if you could say whether CC(C)[C@H](N)C(=O)[O-].CCCC[P+](CCCC)(CCCC)CCCC [tetrabutylphosphonium L-valinate] has mass density at least equal to 1000 kg/m3.
Solution: criterion not met

Exercise: I'd appreciate it if you could say whether CCCC[P+](CCCC)(CCCC)CCCC.NCCCC[C@H](N)C(=O)[O-] [tetrabutylphosphonium L-lysinate] has mass density at least equal to 1000 kg/m3.
Solution: criterion not met

Exercise: I'd appreciate it if you could say whether CCCC[N+](C)(CCCC)CCCC.NCCS(=O)(=O)[O-] [N,N-dibutyl-N-methyl-1-butanaminium 2-aminoethanesulfonate] has mass density at least equal to 1000 kg/m3.
Solution: criterion met

###

I'd appreciate it if you could supply molar heat capacity at constant pressure values for the items below.
- MEASUREMENT_DESCRIPTION: molar heat capacity at constant pressure
- CONDITION_PARAMETERS: 353.15 K; 101.33 kPa; Liquid; Large sample (1 g) DSC
± gives the expanded uncertainty stated by the source.
Don't forget the unit after the number, please.

Worked cases, molar heat capacity at constant pressure given:
>>> result("CCCC[P+](CCCC)(CCCC)CCCC.NCCS(=O)(=O)[O-] [tetrabutylphosphonium 2-aminoethanesulfonate]")
"1073.7 ± 110 J/K/mol"
>>> result("CCCC[P+](CCCC)(CCCC)CCCC.C[C@@H](O)[C@H](N)C(=O)[O-] [tetrabutylphosphonium L-threoninate]")
"1076.4 ± 110 J/K/mol"
>>> result("CC(C)[C@H](N)C(=O)[O-].CCCC[P+](CCCC)(CCCC)CCCC [tetrabutylphosphonium L-valinate]")
"801.1 ± 81 J/K/mol"

Now consider a different compound.
Exercise: For the compound shown here, CCCC[N+](C)(CCCC)CCCC.NCCCC[C@H](N)C(=O)[O-] [N,N-dibutyl-N-methyl-1-butanaminium L-lysinate] , give the reported molar heat capacity at constant pressure.
Solution: 909.5 ± 92 J/K/mol

###

- CONDITION_PARAMETERS: 298.15 K; 101.33 kPa; Liquid; Hot wire method
I'd appreciate it if you could supply thermal conductivity values for the items below.
Answers are plain numbers, in W/m/K.

Worked cases, thermal conductivity given:
>>> numeric_value("CCCC[N+](C)(CCCC)CCCC.C[C@@H](O)[C@H](N)C(=O)[O-] [N,N-dibutyl-N-methyl-1-butanaminium L-threoninate]")
0.16
>>> numeric_value("CCCC[P+](CCCC)(CCCC)CCCC.NCCCC[C@H](N)C(=O)[O-] [tetrabutylphosphonium L-lysinate]")
0.163
>>> numeric_value("CCCC[P+](CCCC)(CCCC)CCCC.O=C([O-])[C@@H]1CCCN1 [tetrabutylphosphonium L-prolinate]")
0.154

The following compounds each have a reported value; give each one's thermal conductivity.
1. CCCC[P+](CCCC)(CCCC)CCCC.N[C@@H](CS)C(=O)[O-] [tetrabutylphosphonium L-cysteinate]
2. CCCC[P+](CCCC)(CCCC)CCCC.C[C@@H](O)[C@H](N)C(=O)[O-] [tetrabutylphosphonium L-threoninate]
3. CCCC[N+](C)(CCCC)CCCC.NCCCC[C@H](N)C(=O)[O-] [N,N-dibutyl-N-methyl-1-butanaminium L-lysinate]
4. CCCC[N+](C)(CCCC)CCCC.N[C@@H](CO)C(=O)[O-] [N,N-dibutyl-N-methylbutanaminium L-serinate]

Solution:
0.152
0.156
0.171
0.169

Recorded values, source the NIST ThermoML archive (doi:10.1021/je900660x).
